molecular target: M17 leucyl aminopeptidase (Plasmodium falciparum 3D7); experiment: Inhibition of P. falciparum M17 aminopeptidase – biochemical, QFRET, set 2, counter-screen for PfM1AAP inhibitor project, dose response (AID 602209); settings: recombinant PfM17LAP, H-Leu-NHMec fluorogenic cleavage
pIC50: −log10 of the molar value.
attribute_measured: pIC50

structure_smiles | observed
O=C(NCc1ccccc1)C1CCN(S(=O)(=O)c2ccc(Br)s2)CC1 | 5.45
O=C(NCc1ccc(F)cc1)C1CCN(S(=O)(=O)c2ccc(Br)s2)CC1 | 5.06
O=C(NCc1ccc2c(c1)OCO2)C1CCN(S(=O)(=O)c2ccc(Br)s2)CC1 | 5.45
O=C(NCc1ccc(Cl)cc1)C1CCN(S(=O)(=O)c2ccc(Br)s2)CC1 | 4.41
